Data provenance: the supplement of paper PMC9170038

List of apparent KD of K4 kissing-loop reporter values.
system: K4 kissing-loop RNA reporter; assay: apparent KD of K4 kissing-loop reporter; higher = weaker reporter binding; conditions: Eterna round: R107; input ligand: FMN 200 uM;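 further: bound reporter read as fluorescence of individual clusters on recovered sequencing chips by microscopy, with normalized cluster intensities fitted with a binding model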
Write the number in nM without appending the unit.

>>> quantitative_result("CGCUGGGCGAGUGAUGUUCGCUCACGUGAUACCAGUGCCAUCCAACACCCUUGGCAGCACGCGGGCAGUGAUGUUGUCCUUGUGG [Exclusion Theophylline A GF7]")
284
>>> quantitative_result("AACUCUCAGACACUUGAGUGAUGUUCAGACCGAGGACCGGUACGGCCGCCACUCGGGUCUGAGAGAGGUUAUCAAAGAUAGCCAA [Omei KL Tryp A SS A v7]")
280
>>> quantitative_result("AAACAUCACUGGGAGUGAUGUUCUCAGUGACGAGGACCGGUACGGCCGCCACUCGCGAGAGAUAUAGUUAAGUAAUGACUGCAUU [Excl Tryptophan A V7]")
324
>>> quantitative_result("UGGAGUUGACGAAAAGUCAACUCCCGAGAAGGAGCGGACGAAAGUCCAGGUAGGUCGCUCGCUACCAGUGAUGUUGGUACAUAAA")
101
>>> quantitative_result("UCCUGCAAUCUGCCACGAAAGUGGAUUGAUACCAGAGUCGAAAGACUCCCUUGGCAGCGAGUGAUGUUCGACGCAGGUAAAUAAA [MatMod 5 - Jieux - Exclusion - Theophylline A]")
142
>>> quantitative_result("UGUCAUUGGUCGGCCGCCACUUCAUGUAGAGUGAUGUUCUGUAGGACGGAUCGAAAGAUCUGUCGAAGGACCGGGACCGAUGACU [FiskerMod 14 - Jieux - Same State - Tryptophan B]")
818

query: For the sequence CGGCUUAGUAGCGCGAGUUGACGUGCCAUCCGAGGACCGGUACGGCCGCCACUCGUGAUCUGUUAAAGUGAUGUUUUAAUGCCAU , what apparent KD of K4 kissing-loop reporter is on record?
result: 722

query: For the sequence AUACGUUUAAGUGAUACCAGACAUGUGAGUGAUGUUUACAAAUAAAUUAAAUUUUUAGCUGUCCCUUGGCAGCACAGUUUAUUUA [JR_ExcTheophyB_Sub002] , what apparent KD of K4 kissing-loop reporter is on record?
result: 516

query: For the sequence ACGACGGCAGCUCAGUGAUGUUGGGCAUUACGAGGACCGGUACGGCCGCCACUCGCUGCUUUGAUCCGUGGAUGAACCUCAGCAU [theeternabot_sameState_KL_Trp_A_13] , what apparent KD of K4 kissing-loop reporter is on record?
result: 576

query: For the sequence UGUAUGUGAUUUGAUACCAGACCAGUUGGUGGUAUAUGAGUGAUGUUUAUGUUGGUUUGGGUCCCUUGGCAGCAAAUCGCAUACU [KL-SSTheoB11] , what apparent KD of K4 kissing-loop reporter is on record?
result: 591

query: For the sequence AGUGAUGUUGUGUUGUGUUAGGGAAGUGAUCGAGGACCGGUACGGCCGCCACUCGAGUGAUGAGUGAGUGAUGUUUGUUUAGGGA [whbob_SS_Tryp_A_m8] , what apparent KD of K4 kissing-loop reporter is on record?
result: 926

query: For the sequence UGACUGGAUUGAAGGAGCGCUAAACUCCUAGUGAUGUUAGGGAAACAAGACAAAGUCUUGAGGCAGGUAGGUCGCAAUCUAGUCU [FiskerMod 4 - Jieux - Same State - Arginine B] , what apparent KD of K4 kissing-loop reporter is on record?
result: 182
